Molecular target: 26S proteasome (lid disassembly, GFP-tagged; likely yeast)
Test: inhibitors of ATP-dependent 26S proteasome disassembly, dose response, biochemical, bead-based flow cytometry, GFP-tagged lid (AID 1062)
Settings: GFP-proteasome beads, at 100 µM (top of the series)
Active and inactive are the calls of the source.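 How the source made its calls: active means compounds blocking proteasome disassembly by more than 40% at the highest tested dose; inconclusive means compounds bright enough on their own to skew readings; inactive means the rest.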 Where a SMILES comes first, the peptide text is derived from it. The star is where a group is joined. Cbz = O=C(OCc1ccccc1)*
MEASUREMENT_KIND: inhibition of disassembly

These solved cases illustrate the format of a correct answer.
MOLECULE | inhibition of disassembly
COC(=O)c1ccc2c(c1)N(Cc1nc(-c3cccc(Cl)c3)oc1C)C(=O)C1CCCN21 (stereo unspecified) | inactive
Cc1noc(/C=C/c2ccco2)c1S(=O)(=O)N1CCC(C(=O)N(C)Cc2ccccc2)CC1 | inactive
CCN(CC)c1ccc(-c2c(C#N)c(N)nc(OC)c2C#N)cc1 | inactive
O=c1cc(Nc2ccc3c(c2)OCCO3)[nH]c(=O)n1C1CCCCC1 | inactive
CC(C)C[C@@H](C=O)NC(=O)[C@H](CC(C)C)NC(=O)[C@H](CC(C)C)NC(=O)OCc1ccccc1 (Cbz-Leu-Leu-Leu-aldehyde) | inactive
O=C1CC(c2ccccc2)Cc2nc(N3CCc4ccccc43)ncc21 (stereo unspecified) | inactive

For 26S proteasome (lid disassembly, GFP-tagged; likely yeast), give the measured inhibition of disassembly of the entry Cc1noc(/C=C/c2ccco2)c1S(=O)(=O)N1CCC(C(=O)N2CCc3ccccc3C2)CC1
inactive

For 26S proteasome (lid disassembly, GFP-tagged; likely yeast), give the measured inhibition of disassembly of the entry COC(=O)C1=C(C)N=c2s/c(=C/c3cccs3)c(=O)n2C1c1cccs1 (stereo unspecified)
inactive

For 26S proteasome (lid disassembly, GFP-tagged; likely yeast), give the measured inhibition of disassembly of the entry Cc1noc(/C=C/c2ccco2)c1S(=O)(=O)N1CCC(C(=O)N2c3ccccc3CC2C)CC1 (stereo unspecified)
inactive

For 26S proteasome (lid disassembly, GFP-tagged; likely yeast), give the measured inhibition of disassembly of the entry N#Cc1cc2c(nc1SCC(=O)Nc1sc3c(c1C#N)CCC3)CCCCC2
inactive

###

Target: 26S proteasome (lid disassembly, GFP-tagged; likely yeast)
Assay: inhibitors of ATP-dependent 26S proteasome disassembly, dose response, biochemical, bead-based flow cytometry, GFP-tagged lid (AID 1062)
Details: GFP-proteasome beads, disassembly inhibition
Active and inactive are the calls of the source.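 The calls were made as follows: active = compounds blocking proteasome disassembly by more than 40% at the highest tested dose; inconclusive = compounds bright enough on their own to skew readings; inactive = the rest.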
Please state which outcome applies, choosing from true (1) = active, false (0) = inactive

Completed entries (count: 2):
COMPOUND | TARGET_ENTITY | CLASS_LABEL
O=C(Nc1ccccc1)C1=C(O)CC(c2ccco2)CC1=Nc1ccccc1 (stereo not given) | 26S proteasome (lid disassembly, GFP-tagged; likely yeast) | false (0)
COC(=O)c1ccc2c(c1)N(Cc1nc(-c3ccc(Cl)cc3)oc1C)C(=O)C1CCCN21 (stereo not given) | 26S proteasome (lid disassembly, GFP-tagged; likely yeast) | false (0)

Status in this test for O=C(CN1C(=O)C2CCCN2c2ncc(Cl)cc21)NCc1ccc2c(c1)OCO2 (stereo not given) ?
false (0)

Status in this test for Cc1cccc(NC(=O)c2sc3nc(-c4ccc(F)cc4)cn3c2C)n1 ?
true (1)

Status in this test for CC(=O)N1C(=O)C(=C2C=C(C)OC(C)=C2)c2ccccc21 ?
true (1)
